// data source = patent US20250235543A1

target: DDB1 (Homo sapiens, UniProt Q16531, D705G/DEL396-460/DEL463-701/I704S/T703N); construct: His6 (N, cleaved yes); TEV protease cleavage site (N, cleaved yes); made in house; host or cells: SF9 insect cells, Bac-to-Bac baculovirus, pFastBacHTB vector; experiment: SPR binding assay to immobilized DDB1ΔBPB; details: binding affinities to DDB1
Sequence (Q16531 other isoform, or with tags, fused parts or gaps DEL396-460/DEL463-701/T703N/I704S/D705G): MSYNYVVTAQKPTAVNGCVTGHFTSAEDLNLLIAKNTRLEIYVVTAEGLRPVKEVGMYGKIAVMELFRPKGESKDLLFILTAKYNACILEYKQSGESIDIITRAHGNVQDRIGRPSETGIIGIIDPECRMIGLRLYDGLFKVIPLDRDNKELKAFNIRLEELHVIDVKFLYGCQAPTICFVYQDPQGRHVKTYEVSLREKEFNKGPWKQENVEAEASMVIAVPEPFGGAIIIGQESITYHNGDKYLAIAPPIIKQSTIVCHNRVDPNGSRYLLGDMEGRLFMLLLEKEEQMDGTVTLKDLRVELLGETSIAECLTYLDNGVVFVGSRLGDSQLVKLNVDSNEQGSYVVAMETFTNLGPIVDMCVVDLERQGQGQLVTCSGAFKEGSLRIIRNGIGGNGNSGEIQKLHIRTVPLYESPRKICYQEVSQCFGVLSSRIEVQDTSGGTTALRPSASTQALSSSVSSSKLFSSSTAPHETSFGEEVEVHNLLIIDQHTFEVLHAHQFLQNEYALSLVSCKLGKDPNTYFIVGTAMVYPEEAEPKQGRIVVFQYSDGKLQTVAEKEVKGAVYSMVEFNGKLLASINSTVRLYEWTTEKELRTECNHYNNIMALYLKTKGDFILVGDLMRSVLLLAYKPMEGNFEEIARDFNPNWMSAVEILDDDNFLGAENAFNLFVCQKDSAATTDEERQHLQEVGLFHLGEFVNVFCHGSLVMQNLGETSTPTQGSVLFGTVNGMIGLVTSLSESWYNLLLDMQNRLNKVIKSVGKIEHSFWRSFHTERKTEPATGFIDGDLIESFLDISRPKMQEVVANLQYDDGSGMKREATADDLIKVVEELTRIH
metricName: Kd

Observe how each entry below is paired with its result.
In: Looking for the measured Kd of "CC(=O)Nc1ccccc1C(=O)Nc1ccc(C)c(C2CC2)n1" , can you help?
Out: > 100 µM

In: Another compound to check: "COc1ccc(NC(=O)c2ccccc2NC(C)=O)nn1"
Out: 20 to 50 µM

In: Another compound to check: "CC(=O)c1c(C)c2cnc(Nc3ccc(N4CCN(CC(=O)NCCOCCOCCOCCOCCOCCNc5ccc(C(=O)Nc6ncc(C)s6)c(C)c5)CC4)cn3)nc2n(C2CCCC2)c1=O"
Out: 20 to 50 µM

In: Another compound to check: "CC(=O)Nc1ccccc1C(=O)Nc1ccc(C)cn1"
Out: > 100 µM

Next:
In: Looking for the measured Kd of "CNc1ccc(C(=O)Nc2nc(C)c(C)s2)c(NC(C)=O)c1" , can you help?
Out: 20 to 50 µM

In: Another compound to check: "CCc1nc(NC(=O)c2ccc(NCCOCCOCCOCCOCCOCCNC(=O)CN3CCN(c4ccc(Nc5ncc6c(C)c(C(C)=O)c(=O)n(C7CCCC7)c6n5)nc4)CC3)cc2C)sc1C"
Out: < 20 µM

In: Another compound to check: "CNc1ccc(C(=O)Nc2ccc(C)cn2)c(NC(C)=O)c1"
Out: < 20 µM

In: Another compound to check: "Cc1cnc(NC(=O)c2ccc(NCCOCCOCCOCCOCCOCCN)cc2C)s1"
Out: < 20 µM
